Assay: Single dose administration test of lemborexant in healthy adults (Test Example 3)
Format: in vivo, human
Conditions: human, plasma, oral, 10 mg, single administration of 10 mg lemborexant, healthy adults; read-out: AUC(0-inf), maximum value
measured_parameter: AUC(0-inf) (ng·h/mL)
The reply should contain only the number, in ng·h/mL.

Problem: Request the reported AUC(0-inf) associated with Cc1ncc(OC[C@@]2(c3cccc(F)c3)C[C@H]2C(=O)Nc2ccc(F)cn2)c(C)n1 [lemborexant]
Result: 409

---

Assay: Single dose administration test of lemborexant in healthy adults (Test Example 3)
Type: in vivo, human
Settings: human, plasma, oral, 10 mg, single administration of 10 mg lemborexant, healthy adults; read-out: Cmax, maximum value
measured_parameter: Cmax (ng/mL)
Answer format: numeric, ng/mL implied, no suffix.

Problem: Name the recorded Cmax for Cc1ncc(OC[C@@]2(c3cccc(F)c3)C[C@H]2C(=O)Nc2ccc(F)cn2)c(C)n1 [lemborexant] .
Result: 62.1

---

Assay: Single dose administration test of lemborexant in healthy adults (Test Example 3)
Assay type: in vivo, human
Conditions: human, plasma, oral, 5 mg, single administration of 5 mg lemborexant, healthy adults; read-out: Cmax, Median
measured_parameter: Cmax (ng/mL)
Your answer is read as ng/mL, so omit the unit and give the number.

Problem: Quick one: Cmax for Cc1ncc(OC[C@@]2(c3cccc(F)c3)C[C@H]2C(=O)Nc2ccc(F)cn2)c(C)n1 [lemborexant] ?
Result: 21.9

---

Assay: Single dose administration test of lemborexant in healthy adults (Test Example 3)
Type: in vivo, human
Conditions: human, plasma, oral, 5 mg, single dose of 5 mg lemborexant; read-out: Cmax, upper limit value of the 95% confidence interval
Procedure: In 64 cases of healthy adults under a feed-deprived condition, the pharmacokinetics of lemborexant administered with single doses of 1, 2.5, 5, 10, 25, 50, 100, and 200 mg thereof was examined by a randomized, double-blinded, placebo-controlled, multi-stage single administration test. In each group, lemborexant was administered to six cases, and the placebo was administered to two cases. […]
measured_parameter: Cmax (ng/mL)
Give your result in ng/mL as a bare value.

Problem: Can you share its Cmax? I mean this compound: Cc1ncc(OC[C@@]2(c3cccc(F)c3)C[C@H]2C(=O)Nc2ccc(F)cn2)c(C)n1
Result: 27.3

---

Test: Prediction of pharmacokinetics of 2.5 mg lemborexant in combination with agent moderately or strongly inhibiting CYP3A (Test Example 1-3, dose proportionality)
Format: in vivo, human
Settings: both sexes, human, plasma, oral, 2.5 mg lemborexant; lower to upper limit of 95% CI in combination with itraconazole; read-out: mean Cmax achieved
measured_parameter: Cmax

Problem: Consider the molecule shown here: Cc1ncc(OC[C@@]2(c3cccc(F)c3)C[C@H]2C(=O)Nc2ccc(F)cn2)c(C)n1 [lemborexant] What is its recorded Cmax?
Result: 17 to 21.1 ng/mL

---

Assay: Single dose administration test of lemborexant in healthy adults (Test Example 3)
Type: in vivo, human
Settings: human, plasma, oral, 10 mg, single administration of 10 mg lemborexant, healthy adults; read-out: Cmax, Minimum value
measured_parameter: Cmax (ng/mL)
Please reply with the bare figure in ng/mL and do not write the unit itself.

Problem: State the recorded Cmax for this entry: Cc1ncc(OC[C@@]2(c3cccc(F)c3)C[C@H]2C(=O)Nc2ccc(F)cn2)c(C)n1
Result: 16.9

---

Experiment: Prediction of pharmacokinetics of 2.5 mg lemborexant in combination with agent moderately or strongly inhibiting CYP3A (Test Example 1-3, dose proportionality)
Assay type: in vivo, human
Details: both sexes, human, plasma, oral; 2.5 mg lemborexant with moderate or strong CYP3A inhibitor; lower 95% CI limit with fluconazole to upper 95% CI limit with itraconazole; read-out: mean AUC (0-inf) achieved
Procedure: The results are shown in Tables 3 and 4 with the actually measured values of the single administration of 10 mg lemborexant in Sections (1-1) and (1-2) above.
measured_parameter: AUC(0-inf)

Problem: Look up AUC(0-inf) for this molecule: Cc1ncc(OC[C@@]2(c3cccc(F)c3)C[C@H]2C(=O)Nc2ccc(F)cn2)c(C)n1 [lemborexant]
Result: 308 to 533 ng·h/mL

---

Assay: Single dose administration test of lemborexant in healthy adults (Test Example 3)
Format: in vivo, human
Conditions: human, plasma, oral, 5 mg, single administration of 5 mg lemborexant, healthy adults; read-out: AUC(0-inf), Geometric mean
measured_parameter: AUC(0-inf) (ng·h/mL)
Numbers only; they are read as ng·h/mL.

Problem: Which value of AUC(0-inf) has been reported for Cc1ncc(OC[C@@]2(c3cccc(F)c3)C[C@H]2C(=O)Nc2ccc(F)cn2)c(C)n1 in the records?
Result: 146

---

Experiment: Single dose administration test of lemborexant in healthy adults (Test Example 3)
Type: in vivo, human
Conditions: human, plasma, oral, 5 mg, single administration of 5 mg lemborexant, healthy adults; read-out: AUC(0-inf), Median
measured_parameter: AUC(0-inf)
# number then unit; no other words

Problem: Look up AUC(0-inf) for this molecule: Cc1ncc(OC[C@@]2(c3cccc(F)c3)C[C@H]2C(=O)Nc2ccc(F)cn2)c(C)n1
Result: 139 ng·h/mL

---

Assay: Single dose administration test of lemborexant in healthy adults (Test Example 3)
Assay type: in vivo, human
Conditions: human, plasma, oral, 10 mg, single administration of 10 mg lemborexant, healthy adults; read-out: AUC(0-inf), Median
Protocol: In 64 cases of healthy adults under a feed-deprived condition, the pharmacokinetics of lemborexant administered with single doses of 1, 2.5, 5, 10, 25, 50, 100, and 200 mg thereof was examined by a randomized, double-blinded, placebo-controlled, multi-stage single administration test. In each group, lemborexant was administered to six cases, and the placebo was administered to two cases. […]
measured_parameter: AUC(0-inf) (ng·h/mL)
# unit: ng·h/mL | format: bare number

Problem: Reported AUC(0-inf) for Cc1ncc(OC[C@@]2(c3cccc(F)c3)C[C@H]2C(=O)Nc2ccc(F)cn2)c(C)n1 : what is it?
Result: 314

---

Assay: Prediction of pharmacokinetics of 2.5 mg lemborexant in combination with agent moderately or strongly inhibiting CYP3A (Test Example 1-3, dose proportionality)
Format: in vivo, human
Conditions: both sexes, human, plasma, oral, 2.5 mg lemborexant; lower to upper limit of 95% CI in combination with itraconazole; read-out: mean AUC (0-inf) achieved
measured_parameter: AUC(0-inf)

Problem: # AUC(0-inf) lookup, item Cc1ncc(OC[C@@]2(c3cccc(F)c3)C[C@H]2C(=O)Nc2ccc(F)cn2)c(C)n1 [lemborexant]
Result: 374 to 533 ng·h/mL

---

Assay: Single dose administration test of lemborexant in healthy adults (Test Example 3)
Type: in vivo, human
Conditions: human, plasma, oral, 5 mg, single dose of 5 mg lemborexant; read-out: AUC (0-inf), upper limit value of the 95% confidence interval
measured_parameter: AUC(0-inf) (ng·h/mL)
// note: answer is a bare numeric in ng·h/mL

Problem: Could you share which AUC(0-inf) value was measured for Cc1ncc(OC[C@@]2(c3cccc(F)c3)C[C@H]2C(=O)Nc2ccc(F)cn2)c(C)n1 [lemborexant] ?
Result: 189

---

Assay: Single dose administration test of lemborexant in healthy adults (Test Example 3)
Assay type: in vivo, human
Conditions: human, plasma, oral, 5 mg, single dose of 5 mg lemborexant; read-out: Cmax, lower limit value of the 95% confidence interval
measured_parameter: Cmax (ng/mL)
Express it in ng/mL; write the number only.

Problem: For Cc1ncc(OC[C@@]2(c3cccc(F)c3)C[C@H]2C(=O)Nc2ccc(F)cn2)c(C)n1 , what is its reported Cmax?
Result: 18.3

---

Experiment: Single dose administration test of lemborexant in healthy adults (Test Example 3)
Type: in vivo, human
Conditions: human, plasma, oral, 5 mg, single administration of 5 mg lemborexant, healthy adults; read-out: Cmax, Geometric mean
measured_parameter: Cmax

Problem: Reported Cmax, compound Cc1ncc(OC[C@@]2(c3cccc(F)c3)C[C@H]2C(=O)Nc2ccc(F)cn2)c(C)n1 : ____
Result: 22.3 ng/mL

---

Test: Single dose administration test of lemborexant in healthy adults (Test Example 3)
Type: in vivo, human
Details: human, plasma, oral, 10 mg, single administration of 10 mg lemborexant, healthy adults; read-out: Cmax, Mean
measured_parameter: Cmax (ng/mL)
Use ng/mL as the unit, but write only the number.

Problem: Which value of Cmax has been reported for Cc1ncc(OC[C@@]2(c3cccc(F)c3)C[C@H]2C(=O)Nc2ccc(F)cn2)c(C)n1 in the records?
Result: 36

---

Assay: Pharmacokinetics of lemborexant alone and in combination with fluconazole in healthy adults (Test Example 1-1)
Conditions: both, human, plasma, oral, 10 mg
measured_parameter: AUC(0-inf)
Returns: string containing the number followed by the unit.

Problem: AUC(0-inf) lookup needed for Cc1ncc(OC[C@@]2(c3cccc(F)c3)C[C@H]2C(=O)Nc2ccc(F)cn2)c(C)n1 , thanks.
Result: 374 ng·h/mL
